# Experimental Target: human ether-à-go-go-related gene (hERG) potassium channel (human)
# Assay Procedure: primary screen, population patch clamp on CHO cells stably expressing hERG; higher = less effect of the substance
Among all 310,000 compounds or so, about 14,000 (4.5%) showed an effect of 50% or more. Effects have a minus sign here. This is one part of a sample in which strong results are shown more often than they occur.
Quick rule: hERG current change (%, negative = inhibition) at 10uM of at least -40% means t, below that means f.

COCCC(=O)N1CCC(Oc2ccc(C(=O)NCCCC3CCCC3)cc2)CC1 | t
CNC(=S)NNC(=O)Cc1ccc(O)cc1 | t
COc1cc(NC(=O)COC(=O)CO/N=C(\C)c2ccc3c(c2)OCO3)cc(OC)c1 | t
COCC(=O)N1CCC(Oc2ccc(C(=O)NCCCC3CCCC3)cc2)CC1 | f
Cc1cccc(-n2c(C)nc3c(cnn3-c3ccc(F)cc3)c2=O)c1 | t
CSCCCNC(=O)c1ccc(OC2CCN(CCc3ccccc3)CC2)cc1 | f
COC(=O)N/N=C(\C)c1ccc(Br)cc1 | t
CSc1ccc(C2NC(=O)c3ccccc3N2)cc1 (stereo not shown) | t
CSCCNC(=O)c1ccc(OC2CCN(CCc3ccccc3)CC2)cc1 | f

###

# key: entry, value: hERG current change (%, negative = inhibition) at 10uM
# Experimental Target: human ether-à-go-go-related gene (hERG) potassium channel (human, UniProt Q12809);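 also: peak tail current of the secondary pulse compared with the same well before compound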
# Sequence (Q12809 whole entry, looked up): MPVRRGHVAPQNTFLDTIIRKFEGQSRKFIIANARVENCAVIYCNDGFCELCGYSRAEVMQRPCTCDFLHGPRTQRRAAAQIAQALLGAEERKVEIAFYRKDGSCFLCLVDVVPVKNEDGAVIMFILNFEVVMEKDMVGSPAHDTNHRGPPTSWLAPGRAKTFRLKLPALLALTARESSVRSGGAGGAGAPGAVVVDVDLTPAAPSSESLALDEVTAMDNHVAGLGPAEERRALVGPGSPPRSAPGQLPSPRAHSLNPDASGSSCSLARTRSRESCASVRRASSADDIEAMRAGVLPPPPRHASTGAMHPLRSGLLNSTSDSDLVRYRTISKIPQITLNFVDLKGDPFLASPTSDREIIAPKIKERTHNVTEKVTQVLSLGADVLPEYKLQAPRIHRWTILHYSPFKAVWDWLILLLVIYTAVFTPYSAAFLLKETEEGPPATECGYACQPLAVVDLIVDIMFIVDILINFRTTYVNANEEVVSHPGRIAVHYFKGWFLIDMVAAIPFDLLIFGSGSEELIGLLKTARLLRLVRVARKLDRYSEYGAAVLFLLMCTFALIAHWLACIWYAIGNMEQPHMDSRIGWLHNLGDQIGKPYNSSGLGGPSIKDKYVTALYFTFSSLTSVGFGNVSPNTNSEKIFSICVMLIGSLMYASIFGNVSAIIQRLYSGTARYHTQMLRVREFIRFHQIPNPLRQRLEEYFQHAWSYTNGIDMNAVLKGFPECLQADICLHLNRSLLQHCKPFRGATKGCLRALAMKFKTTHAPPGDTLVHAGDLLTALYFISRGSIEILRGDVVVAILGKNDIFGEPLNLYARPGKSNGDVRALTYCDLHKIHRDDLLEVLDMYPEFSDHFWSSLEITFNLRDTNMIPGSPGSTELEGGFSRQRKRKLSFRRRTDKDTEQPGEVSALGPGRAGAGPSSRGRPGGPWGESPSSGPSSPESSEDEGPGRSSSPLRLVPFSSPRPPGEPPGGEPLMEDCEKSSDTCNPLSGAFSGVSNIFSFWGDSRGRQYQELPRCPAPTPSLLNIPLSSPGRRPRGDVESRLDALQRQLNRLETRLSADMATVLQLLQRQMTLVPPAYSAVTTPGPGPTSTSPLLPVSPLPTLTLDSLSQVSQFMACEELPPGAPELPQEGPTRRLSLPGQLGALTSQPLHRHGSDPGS
# Assay Procedure: primary screen, population patch clamp on CHO cells stably expressing hERG; higher = less effect of the substance
Among all 310,000 compounds or so, about 14,000 (4.5%) showed an effect of 50% or more. The effect is printed as a negative number. Shown is part of a subset that was picked to be rich in strong results.
Value Kind: hERG current change (%, negative = inhibition) at 10uM (%)

COc1cc(NC(=O)CSc2nc(=O)n(CCCN3CCOCC3)c3c2CCC3)cc(OC)c1 | -34.9
CCOC(=O)N1CCN(C(=O)c2cc3c(s2)-c2ccc(Cl)cc2S(=O)(=O)C3)CC1 | -66.5
Cc1ccc(C)c(NS(=O)(=O)c2cc(C(=O)NCC3CCCO3)ccc2C)c1 (stereo not drawn) | -47.7
Cc1ccc(C)c(NC(=O)CSc2nc(=O)n(CCN3CCOCC3)c3c2CCCC3)c1 | -24.2
COc1ccc(N(C)C(=O)c2cc3c(s2)-c2ccccc2S(=O)(=O)C3)cc1 | -39.9
O=C(NC(NC(=S)Nc1ccccc1)C(Cl)(Cl)Cl)c1cccc(Cl)c1 (stereo not drawn) | 7.91
CCN(CC)CCn1c2c(c(SCC(=O)Nc3cc(C)on3)nc1=O)CCCC2 | -25
Cc1cc2cc(CCNC(=O)c3ccc(S(=O)(=O)N4CCOCC4)cc3)c(=O)[nH]c2cc1C | 6.3
CCN(CC)CCn1c2c(c(SCC(=O)Nc3cc(C)cc(C)c3)nc1=O)CCC2 | -62.1

###

# Experimental Target: human ether-à-go-go-related gene (hERG) potassium channel (human, UniProt Q12809);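 also: peak tail current of the secondary pulse compared with the same well before compound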
# Assay Procedure: primary screen, population patch clamp on CHO cells stably expressing hERG; higher = less effect of the substance
Out of some 310,000 compounds screened, about 14,000 (4.5%) showed an effect of 50% or more. Effects have a minus sign here. For the sample, strong results were picked, then their nearest neighbours and some compounds at random.
Value Kind: hERG current change (%, negative = inhibition) at 10uM

CC(=O)N1CCc2cc(Br)cc(S(=O)(=O)NCCCN(C)Cc3ccccc3)c21 | -38.3%
CC1CCN(S(=O)(=O)c2ccc3c(c2)NC(=O)CS3)CC1 | -52.2%
CC(=O)N1c2c(cc(Br)cc2S(=O)(=O)NCc2ccc(C)cc2)CC1C (stereo not shown) | -59.5%
Cc1ccc(S(=O)(=O)NNC(=O)C(O)(c2ccccc2)c2ccccc2)cc1 | 1.02%
CN1CCN(S(=O)(=O)c2ccc3c(c2)NC(=O)CS3)CC1 | 13.3%
CC(C)c1nnc(NC(=O)C2CCCN2S(=O)(=O)c2ccc(Cl)cc2)s1 (stereo not shown) | 7.71%
CC1CCN(S(=O)(=O)c2ccc3c(c2)N(CC(=O)NCCCN2CC(C)CC(C)C2)C(=O)CS3)CC1 (stereo not shown) | -66.2%
COc1ccc(S(=O)(=O)N2CCC(CN3C(=O)c4cccc5cccc(c45)C3=O)CC2)cc1 | 7.22%
O=C(C1CC1)N1CCc2cc(Br)cc(S(=O)(=O)NCc3ccco3)c21 | -41%
CCN(c1ccc2c(c1)OCO2)S(=O)(=O)c1cc(Br)cc2c1N(C(=O)C1CC1)CC2 | 8.05%
CC(=O)N1CCc2cc(Br)cc(S(=O)(=O)NCc3ccccn3)c21 | 7.02%
Cc1ccccc1CC1(CO)CCCN(C(=O)c2cc(-c3ccccc3)no2)C1 (stereo not shown) | 2.91%
CCOC(=O)C1CCN(Cc2cnc(Oc3ccc(N)cc3)s2)CC1 | -10.6%
CC1CC(C)CN(CCCNC(=O)CN2C(=O)CSc3ccc(S(=O)(=O)N4CCCCC4)cc32)C1 (stereo not shown) | -50.2%
COc1ccc(OCC(O)CN2CCC(CN3C(=O)c4cccc5cccc(c45)C3=O)CC2)cc1.Cl (stereo not shown) | -59.1%
COc1ccc(CNS(=O)(=O)c2cc(Br)cc3c2N(C(C)=O)C(C)C3)cc1 (stereo not shown) | -40.9%
COc1ccc(NC(=O)CNC(=O)Cc2cccc3ccccc23)c(OC)c1 | 2.01%
CCCCN(C)S(=O)(=O)c1cc(Br)cc2c1N(C(=O)C1CC1)CC2 | -51.6%
O=C(NNS(=O)(=O)c1ccc(CCCl)cc1)C(O)(c1ccccc1)c1ccccc1 | -55.9%

###

# Experimental Target: human ether-à-go-go-related gene (hERG) potassium channel (human);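 also: peak tail current of the secondary pulse compared with the same well before compound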
# Assay Procedure: primary screen, population patch clamp on CHO cells stably expressing hERG; higher = less effect of the substance
The whole screen tested about 310,000 compounds, of which about 14,000 (4.5%) showed an effect of 50% or more. The effect is printed as a negative number. Shown is part of a subset that was picked to be rich in strong results.
Hi, to clarify the labels: Y covers hERG current change (%, negative = inhibition) at 10uM from 10% upward, N covers anything below 10%.

Nc1ccc(NC(=O)c2ccccc2)c2c1C(=O)c1ccccc1C2=O | N
Cc1cc([N+](=O)[O-])nn1CC(=O)NCc1ccccc1 | Y
C#Cc1ccc(CN2CCN(CCCc3ccccc3)C(CCO)C2)cc1 (centres unmarked) | N
OCCCCO | Y
C=CCN(C(=O)c1ccc(Cl)cc1)c1ccccc1C(=O)NCC(=O)O | Y
Cc1ccc(C)c(NC(=O)CN(C)C(=O)c2ccc(Cl)nc2)c1 | N
O=C(CSc1ccccc1)Nc1nnc(C2CC2)s1 | Y
CN(C(=O)c1cccc(S(=O)(=O)N2CCCCC2)c1)C1CCS(=O)(=O)C1 (centres unmarked) | N
Cc1ccc(C(=O)OCC(=O)N(C)C2CCS(=O)(=O)C2)cc1S(=O)(=O)N1CCCCC1 (centres unmarked) | N
C#Cc1ccc(CN2CCN(CCc3ccccc3)C(CCO)C2)cc1 (centres unmarked) | N
CC(C)c1nnc(NC(=O)CCC(=O)NCc2ccccc2Cl)s1 | Y

###

Parameter: hERG current change (%, negative = inhibition) at 10uM. Scope: all listed entries.
# Experimental Target: human ether-à-go-go-related gene (hERG) potassium channel (human, UniProt Q12809);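 also: peak tail current of the secondary pulse compared with the same well before compound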
# Assay Procedure: primary screen, population patch clamp on CHO cells stably expressing hERG; higher = less effect of the substance
The whole screen tested about 310,000 compounds, of which about 14,000 (4.5%) showed an effect of 50% or more. The effect is printed as a negative number. What follows is part of a selection rich in strong results, with near analogues and random picks from the rest.
Value Kind: hERG current change (%, negative = inhibition) at 10uM (%)

CN(C)Cc1c(O)ccc2occ(C(=O)c3ccc(F)cc3)c12 | -69.6
CC(C)CCN1C(=O)c2ccc(C(=O)NCC3CCCO3)cc2C1=O (centres unmarked) | -8.48
CCN1CCN(S(=O)(=O)c2ccc3c(c2)NC(=O)CS3)CC1 | 19.9
CN(C)S(=O)(=O)c1ccc(Cl)c(NC(=O)CSc2nc3c(cc2C#N)C(=O)CC(C)(C)C3)c1 | -65.3
CCC(CC)C(=O)Nc1nnc(S(=O)(=O)N2CCc3ccccc32)s1 | 17.9
COc1ccccc1OCC(O)CN1CCN(C(=O)c2ccccc2)CC1.Cl (centres unmarked) | 1.39
CCN(CC)Cc1c(O)ccc2occ(C(=O)c3ccccc3)c12 | -72.6
CC(C)C(=O)NC(=S)Nc1sc2c(c1C(N)=O)CCCC2 | 13.5
COc1ccc2cnn(-c3ccc(OC(F)(F)Cl)cc3)c(=O)c2c1OC | 6.28
NC(=O)CSc1cn(Cc2ccc(F)cc2)c2ccccc12 | 2.24
CCc1ccccc1Nc1nc(N)nc(COC(=O)CCNS(=O)(=O)c2ccccc2)n1 | -62.7
O=C(CN1C(=O)C2CC=CCC2C1=O)Nc1cc(C(F)(F)F)ccc1N1CCCC1 (centres unmarked) | -24.6
CSc1nnc([C@@H](N)Cc2c[nH]c3ccccc23)o1.Cl | 30.1
FC(F)(F)c1nnc2ccc(Sc3ccccn3)nn12 | 17.1
COc1cc(/C=C/C(=O)OCC(=O)Nc2ccc(C)cc2[N+](=O)[O-])ccc1O | -20.5
CCCOC(=O)c1ccc(OCC(O)CN2CCN(C(=O)c3ccccc3)CC2)cc1.Cl (centres unmarked) | -73.7
CN(C)Cc1c(O)ccc2occ(C(O)c3ccccc3)c12 (centres unmarked) | -2.08
CCc1ccccc1Nc1nc(N)nc(COC(=O)CCS(=O)(=O)c2ccccc2)n1 | -10.5
CCC1CCCCN1CCCNC(=O)CN1C(=O)CSc2ccc(S(=O)(=O)N3CCC(C)CC3)cc21 (centres unmarked) | -9.76
CCN(CC)S(=O)(=O)c1cc(NC(=O)CSc2nc3c(cc2C#N)C(=O)CC(C)(C)C3)ccc1C | 4.51
